- METHOD_SUMMARY: Plasma concentration versus time of Compound I and metabolite Compound III in patients dosed QD or BID with Form B of Compound II plus fulvestrant
- Format: in vivo, human
- COND: human, plasma, oral, 650 mg, 650 mg QD of Form B, Day 1, 3.0 h, Median; read-out: Compound I Concentration
QUANTITY_NAME: concentration at 3 h (ng/mL)
Please reply with the bare figure in ng/mL and do not write the unit itself.

concentration at 3 h lookup needed for CC(C)N1CCN(c2ccc(Nc3ncc4cc5n(c4n3)C3(CCCCC3)CNC5=O)nc2)CC1 [Compound I] , thanks.
31.6

* * *

- METHOD_SUMMARY: Noncompartmental pharmacokinetic parameters (Cmax, Tmax, AUC, Racc) in QD and BID cohorts of Form B
- Type: in vivo, human
- COND: human, plasma, oral, 200 mg, Compound III; 200 mg BID of Form B; Cohort 8; Day 29; read-out: Cmax (Median)
QUANTITY_NAME: Cmax
Put your answer as a value accompanied by its unit after it.

Cmax lookup needed for O=C1NCC2(CCCCC2)n2c1cc1cnc(Nc3ccc(N4CCNCC4)cn3)nc12 , thanks.
2.77 ng/mL

* * *

- METHOD_SUMMARY: Plasma concentration versus time of Compound I and metabolite Compound III in patients dosed QD or BID with Form B of Compound II plus fulvestrant
- Format: in vivo, human
- COND: human, plasma, oral, 100 mg, Cohort 6, 100 mg BID of Form B, Day 29, 1.0 h; read-out: Compound I Concentration, Median
QUANTITY_NAME: concentration at 1 h (ng/mL)
Please reply with the bare figure in ng/mL and do not write the unit itself.

concentration at 1 h lookup needed for CC(C)N1CCN(c2ccc(Nc3ncc4cc5n(c4n3)C3(CCCCC3)CNC5=O)nc2)CC1 , thanks.
9.34

* * *

- METHOD_SUMMARY: Noncompartmental pharmacokinetic parameters (Cmax, Tmax, AUC, Racc) in QD and BID cohorts of Form B
- Assay type: in vivo, human
- COND: human, plasma, oral, 200 mg, Compound III; 200 mg QD of Form B; Cohort 1; Day 1; read-out: AUClast (Median)
- Description: Analysis of plasma concentration versus time data for calculation of standard pharmacokinetic (PK) parameters following oral administration was conducted using Phoenix WinNonlin version 6.3 using actual blood sampling times. […]
QUANTITY_NAME: AUC(0-t) (ng·h/mL)
Please reply with the bare figure in ng·h/mL and do not write the unit itself.

AUC(0-t) lookup needed for O=C1NCC2(CCCCC2)n2c1cc1cnc(Nc3ccc(N4CCNCC4)cn3)nc12 , thanks.
21.3

* * *

- METHOD_SUMMARY: Plasma concentration versus time of Compound I and metabolite Compound III in patients dosed QD or BID with Form B of Compound II plus fulvestrant
- Format: in vivo, human
- COND: human, plasma, oral, 100 mg, 100 mg BID of Form B, Day 1, 4.0 h, Median; read-out: Compound III Concentration
QUANTITY_NAME: concentration at 4 h (ng/mL)
Please reply with the bare figure in ng/mL and do not write the unit itself.

concentration at 4 h lookup needed for O=C1NCC2(CCCCC2)n2c1cc1cnc(Nc3ccc(N4CCNCC4)cn3)nc12 , thanks.
1.13

* * *

- METHOD_SUMMARY: Plasma concentration versus time of Compound I and metabolite Compound III in patients dosed QD or BID with Form B of Compound II plus fulvestrant
- Assay type: in vivo, human
- COND: human, plasma, oral, 500 mg, 500 mg QD of Form B, Day 29, 0.0 h, Mean; read-out: Compound I Concentration
QUANTITY_NAME: concentration at 0 h (ng/mL)
Please reply with the bare figure in ng/mL and do not write the unit itself.

concentration at 0 h lookup needed for CC(C)N1CCN(c2ccc(Nc3ncc4cc5n(c4n3)C3(CCCCC3)CNC5=O)nc2)CC1 , thanks.
14.4
